Test details: Human HepG2 cell viability assay in 384 well format
Format: toxicity, cell-based
Set-up: dose 125 nL, time 70.5 hour; concentration not given beside the values
Condition details: HepG2 cells, read-out: Inhibition
Measured property: cytotoxicity at 70.5 h

# example entries with known answers
CCc1nc(CNC(C)(CO)C2CCCCC2)no1 (configuration not stated) = 15.6%
Cc1cnn(C2CN(CC(=O)NCCc3cccs3)C2)c1 = -12.3%
CCC(CO)N(Cc1cccnc1)C(=O)c1ccc(C)[nH]c1=O (configuration not stated) = -7.73%
CC(C)c1nn(C)c(N2CCOCC2)c1CNCC(=O)N(C)C = -6.07%
O=C(O)c1cc2c(nc1-c1ccncc1)CCN(Cc1ccoc1)CC2 = -7.98%
Cc1nc(COc2ccc(OCC(N)=O)cc2)oc1C = -8.19%
CC(Cn1ccnc1)NC1CCN(Cc2cccc(O)c2)CC1 (configuration not stated) = -4.85%
CCOCC1CN(S(=O)(=O)CC)Cc2cnn(CC3CC3)c21 (configuration not stated) = 6.24%
Cc1noc(CN(C)C2CCCN(Cc3noc(C4CC4)n3)C2)n1 (configuration not stated) = -10.7%
O=C(C1CCS(=O)(=O)C1)N1CCN(c2cnccn2)CC1 (configuration not stated) = 13%

Asked: Supply cytotoxicity at 70.5 h value. Item: Cc1nccc(C(=O)N2CCCC(c3cc(C(F)(F)F)[nH]n3)C2)n1 (configuration not stated)
Given back: -2.27%

Asked: Give cytotoxicity at 70.5 h for the following compound: `CCc1c(C(=O)O)nnn1-c1cccc(C)c1C`
Given back: -7.95%

====

Reported cytotoxicity at 70.5 h values follow for various compounds
Test details: Human HepG2 cell viability assay in 384 well format
Format: toxicity, cell-based
Design: dose 125 nL, time 70.5 hour; concentration not given beside the values
Condition details: HepG2 cells, read-out: Inhibition
The figure you give is taken to be in %; do not add the unit.

Consider the reported cytotoxicity at 70.5 h for these compounds:
Cc1cnc(NCc2ccncc2)nc1-c1cnn(C)c1 = 12.6
Cc1nc(C)n(CC2CN(CCC(=O)N3CCCCC3)CCO2)n1 (stereo unspecified) = -6.29
CC(C#N)CN(C)C(=O)CCNC(=O)OCC(F)(F)F (stereo unspecified) = -0.113
c1ccc2sc(N3CCC4(CCCN4Cc4ncc[nH]4)CC3)nc2c1 = -7.49
O=C(C1CCOCC1)N1C[C@@H](F)[C@@H](OCc2nc3cc(F)ccc3[nH]2)C1 = -2.48

Asked: Identify cytotoxicity at 70.5 h associated with the compound `COCCN(CC(F)F)c1cc(COC)nc2ncnn12`
Given back: -9.69

Asked: Please list cytotoxicity at 70.5 h recorded for the compound `CCN(CC)S(=O)(=O)c1ccc(CNC(=O)N2CCC(C#N)CC2)cc1`
Given back: -6.61

Asked: Tell me measured cytotoxicity at 70.5 h for CC(=O)N(Cc1ncc(C)o1)C1CCN(Cc2cc(C)on2)C1 (stereo unspecified) please.
Given back: -4.42

Asked: Respond only with cytotoxicity at 70.5 h recorded for `COc1ccc2c3c1CN(C(C)=O)CC3=CC(C)(C)CO2`
Given back: 0.846

Asked: Output measured cytotoxicity at 70.5 h for this item: CCc1csc(C2CCCN(C(=O)c3ccccn3)C2)n1 (stereo unspecified)
Given back: -7.06

Asked: Please indicate cytotoxicity at 70.5 h recorded for c1cnc(N2CC3(CCN(CC4CCOC4)CC3)c3ccccc32)nc1 (stereo unspecified)
Given back: 0.807

====

Test details: Human HepG2 cell viability assay in 384 well format
Assay type: toxicity, cell-based
Design: dose 125 nL, time 70.5 hour; concentration not given beside the values
Condition details: HepG2 cells, read-out: Inhibition
Catalogue of cytotoxicity at 70.5 h readings, one per entry.
Reply with just the number (in %).

CN(C)c1cc(C2CCCN(C(=O)c3ccc(=O)[nH]n3)C2)ccn1 (stereo not drawn) = -1.67
Cc1occc1C(=O)N1C[C@@H]2[C@@H](C1)OCC(=O)N2Cc1cccnc1 = -2.83
CC(=O)N1CCCC(C(=O)NCc2noc(Cc3ccccc3)n2)C1 (stereo not drawn) = -11.1
O=C(Nc1ccccn1)NC1CCN(c2ccccc2OC(F)F)C1 (stereo not drawn) = -2.08

Asked: Specify measured cytotoxicity at 70.5 h for CC(NC(=O)NCCn1ccnc1)c1ccc2c(c1)NC(=O)CO2 (stereo not drawn) .
Given back: -0.375

Asked: Identify measured cytotoxicity at 70.5 h corresponding to `CSC1(CNC(=O)c2ccn(-c3ccccc3F)n2)CCOCC1`
Given back: -8.53

====

Test details: Human HepG2 cell viability assay in 384 well format
Format: toxicity, cell-based
Parameters: dose 125 nL, time 70.5 hour; concentration not given beside the values
Condition details: HepG2 cells, read-out: Inhibition
Consider the following molecules and their measured cytotoxicity at 70.5 h readings.
Could you give me the number in %? Just the number is fine.

COCc1nnc(C(=O)N2CCC(N3CCCCC3)CC2)o1 = 16.4
Cc1nccc(CNC(=O)NCC(C)Oc2ccccc2F)n1 (configuration not stated) = 10.9
Cc1ccc(CNC(=O)C2CCN(C(=O)c3ccco3)CC2)n1C = 20.7

Asked: Answer with the recorded cytotoxicity at 70.5 h of `O=C(O)c1ccn(-c2ccc(NC(=O)c3ccccc3Cl)cc2)n1` only.
Given back: 11.9

Asked: Give the reported value of cytotoxicity at 70.5 h for this record: `Cc1cc(NC(=O)NCc2ccccc2OC(F)F)n(C)n1`
Given back: -5.54

Asked: For the molecule CC(CNC(=O)c1ccc(Cl)cc1F)N1CCCC1 (configuration not stated) , report cytotoxicity at 70.5 h.
Given back: -16.4

Asked: Given O=C(N1CCCC1)N1CCC2(CC(=O)N(c3ccc4c(c3)OCO4)C2)C1 (configuration not stated) , respond with its cytotoxicity at 70.5 h.
Given back: -2.04

Asked: Give the measured cytotoxicity at 70.5 h for CCCc1n[nH]c(C2CN(C(=O)Cc3ccc(C)nc3)CCO2)n1 (configuration not stated)
Given back: -1.25

Asked: Could you please provide reported cytotoxicity at 70.5 h for c1cncc(-c2noc(CN3CCCCC3Cn3cccn3)n2)c1 (configuration not stated) ? Thanks!
Given back: 1.66

Asked: Item Cc1nc(C2CCCN(C(=O)c3ccncc3)C2)c2sccn12 (configuration not stated) : provide cytotoxicity at 70.5 h
Given back: 21.5

Asked: Please give measured cytotoxicity at 70.5 h of the following entry: `COCCOc1ncccc1C(=O)N(C)c1nccs1`
Given back: -14.2

Asked: Hello, please tell me recorded cytotoxicity at 70.5 h for this one: CCOCC1CN(Cc2cnn(C)c2)Cc2cnn(C)c21 (configuration not stated)
Given back: -9.88

====

cytotoxicity at 70.5 h listing for selected compounds.
Test details: Human HepG2 cell viability assay in 384 well format
Format: toxicity, cell-based
Set-up: dose 125 nL, time 70.5 hour; concentration not given beside the values
Condition details: HepG2 cells, read-out: Inhibition

Guide cases for cytotoxicity at 70.5 h, answers given:
CC(C)c1nn(C)c(N(C)C)c1CNCc1cccnc1N(C)C = 0.645%
O=C(CCc1cscn1)N1CCCC(n2cncn2)C1 (configuration not stated) = 10.8%
O=C(O)c1ccc(OC2CCOCC2)cc1 = -3.72%
O=C(c1ccsc1)N1CC[C@H]2C[C@@H](c3nnc(C4CC4)o3)O[C@@H]2C1 = -12.7%
CC(=O)N(Cc1ncc(C(C)C)o1)C1CCN(Cc2nccn2C)C1 (configuration not stated) = -0.826%

Asked: Could you please provide reported cytotoxicity at 70.5 h for `O=C(CC1CCN(CCc2ccccc2)CC1)NC1CCOCC1` ? Thanks!
Given back: -1.43%

Asked: Read the entry `COc1ccccc1C1(CNCc2cccc(C#N)c2)CCOCC1` and write its reported cytotoxicity at 70.5 h.
Given back: -9.16%

Asked: Tell me cytotoxicity at 70.5 h reported for `CCC(=O)N1CCN(C(=O)Nc2cccc(N3CCOCC3)c2)CC1`
Given back: 2.85%

Asked: Return cytotoxicity at 70.5 h for the following compound: `COCCN(CCN(C)C)C(=O)NC1CC1`
Given back: -2.74%

====

Test details: Human HepG2 cell viability assay in 384 well format
Type: toxicity, cell-based
Design: dose 125 nL, time 70.5 hour; concentration not given beside the values
Condition details: HepG2 cells, read-out: Inhibition
Measured property: cytotoxicity at 70.5 h

Solved entries:
COCCC(=O)N1CCCC(c2nc(O)cc(-c3ccncc3)n2)C1 (centres undefined) = 18%
COc1cc(Br)c(S(=O)(=O)NC(=O)C(C)OC)cc1OC (centres undefined) = -6.11%
CN(Cc1nccn1C)c1ccc(-c2nccn2C)nn1 = 18.2%
O=C1CC(N(C(=O)c2ccc3c(c2)CCC3)C2CC2)C(=O)N1 (centres undefined) = 33.4%
CCC(CNC(=O)C1CC1)(OC)c1ccccc1 (centres undefined) = 8.11%

Asked: Indicate its recorded cytotoxicity at 70.5 h; the molecule in question is Clc1cccc(C(CNCc2cccnc2)N2CCOCC2)c1 (centres undefined)
Given back: 29.7%

Asked: Let me know recorded cytotoxicity at 70.5 h for Cc1csc(N2CCN(CC(=O)NCc3ccccn3)CC2C)n1 (centres undefined) , thanks.
Given back: -13.9%

Asked: For the molecule `O=C(COCC(F)(F)F)Nc1nncs1` , give its reported cytotoxicity at 70.5 h.
Given back: 10.8%
